Where do these numbers come from? They come from PubChem BioAssay (NCATS).

System: WaGa
Test Details: qHTS assay to identify novel small-molecules to repurpose for Merkel cell carcinoma treatment (AID 1296009); further: nearly all actives have a fitted effect of over 60% in size
Protocol Conditions: MCC and control cell lines, CellTiter-Glo viability, 72 h; series mostly up to 46 µM
Inconclusive results are not listed. Calls of active or inactive are those of the source. The call rests on the fitted dose curve; in most records, active means well fitted inhibition curve with a large enough effect; inconclusive means small, poorly fitted or top-dose-only effect; inactive means flat fitted curve, though single readings scatter.
Answer with one of the outcomes active, inactive

Sample answers from the record:
>>> label_class("CN=C(N)NC(=O)Nc1c(C)cccc1C")
"inactive"
>>> label_class("CC(=O)N1CCN(c2ccc(O)cc2)CC1")
"active"
>>> label_class("CC(C(=O)O)c1ccc(/C=C2\\CCCCC2=O)cc1 (stereo unspecified)")
"inactive"
>>> label_class("O=C(O)CCCC[P+](c1ccccc1)(c1ccccc1)c1ccccc1")
"inactive"

Outcome logged for CCc1cccc2c(CCO)c[nH]c12 in this assay:
inactive

Outcome logged for CC[N+](CC)(CC)CCOC(=O)C(C1CCCC1)C1CCCC1 in this assay:
active

Outcome logged for CC(C)(C)CC(=O)OCC(=O)[C@@]1(O)CC[C@H]2[C@@H]3CCC4=CC(=O)C=C[C@]4(C)[C@H]3[C@@H](O)C[C@@]21C in this assay:
inactive

Outcome logged for COC(=O)c1cc(S(N)(=O)=O)ccc1OC in this assay:
inactive

Outcome logged for O=C(Oc1ccccc1)c1cccc(C(=O)Oc2ccccc2)c1 in this assay:
inactive

Outcome logged for N=C(N)c1ccc(OCCCOc2ccc(C(=N)N)cc2)cc1 in this assay:
inactive

Outcome logged for COc1ccc(OC(=O)N(CC(=O)O)Cc2ccc(OCCc3nc(-c4ccccc4)oc3C)cc2)cc1 in this assay:
inactive

====

Experimental Target: Glucocorticoid receptor (Homo sapiens) (UniProt P04150)
Sequence (P04150 whole entry, looked up): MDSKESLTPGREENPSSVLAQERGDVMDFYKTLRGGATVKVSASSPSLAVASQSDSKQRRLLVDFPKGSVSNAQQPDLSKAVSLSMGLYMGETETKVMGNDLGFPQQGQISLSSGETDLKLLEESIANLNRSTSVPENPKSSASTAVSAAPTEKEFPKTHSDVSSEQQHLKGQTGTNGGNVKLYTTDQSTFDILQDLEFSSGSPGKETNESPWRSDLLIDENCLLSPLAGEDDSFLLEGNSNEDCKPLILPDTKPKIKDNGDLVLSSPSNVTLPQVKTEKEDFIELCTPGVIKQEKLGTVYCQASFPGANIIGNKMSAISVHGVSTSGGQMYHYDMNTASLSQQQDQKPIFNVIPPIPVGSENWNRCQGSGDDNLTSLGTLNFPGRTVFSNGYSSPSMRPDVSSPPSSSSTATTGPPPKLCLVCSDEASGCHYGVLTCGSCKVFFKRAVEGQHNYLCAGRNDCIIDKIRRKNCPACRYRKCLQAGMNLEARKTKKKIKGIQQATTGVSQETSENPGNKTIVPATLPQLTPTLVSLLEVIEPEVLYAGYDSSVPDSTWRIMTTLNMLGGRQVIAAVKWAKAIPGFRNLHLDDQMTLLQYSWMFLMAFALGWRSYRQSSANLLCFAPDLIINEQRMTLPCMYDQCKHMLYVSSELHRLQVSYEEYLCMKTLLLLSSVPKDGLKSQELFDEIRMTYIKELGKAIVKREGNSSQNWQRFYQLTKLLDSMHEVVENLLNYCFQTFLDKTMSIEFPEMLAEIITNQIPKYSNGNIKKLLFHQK
Test Details: GR-GFP Redistribution (AID 450)
Protocol Conditions: U2OS GR-GFP nuclear translocation, laser cytometry, 2 h
Calls of active or inactive are those of the source.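 Rule for the calls: active = compounds whose dose series gives a full or clear partial fitted curve of increased nuclear translocation; inconclusive = weak partial curve or effect only at the top dose; inactive = no dose-dependent translocation response.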
Answer with one of the outcomes active, inactive

>>> label_class("CCCCCC(=O)O[C@]1(C(C)=O)CC[C@H]2[C@@H]3CCC4=CC(=O)CC[C@]4(C)[C@H]3CC[C@@]21C")
"active"
>>> label_class("NCC(=O)O")
"inactive"
>>> label_class("CC(NCCC(c1ccccc1)c1ccccc1)c1ccccc1 (stereo unspecified)")
"inactive"

Outcome logged for O=C1NC(c2cccc([N+](=O)[O-])c2)=CCN1c1ccccc1O in this assay:
inactive

Outcome logged for O=C(O)c1ccccc1S in this assay:
inactive

Outcome logged for CN(C(=O)C(Cl)Cl)c1ccc(OC(=O)c2ccco2)cc1 in this assay:
inactive

Outcome logged for CCCC(=O)O[C@]1(C(=O)CCl)[C@@H](C)C[C@H]2[C@@H]3CCC4=CC(=O)C=C[C@]4(C)[C@@]3(F)C(=O)C[C@@]21C in this assay:
active

Outcome logged for O=C(CCCCC(=O)Nc1c(I)cc(I)c(C(=O)O)c1I)Nc1c(I)cc(I)c(C(=O)O)c1I in this assay:
inactive

Outcome logged for CC(C)N(CCC(=O)c1ccc2ccccc2c1)Cc1ccccc1 in this assay:
inactive

Outcome logged for CC(=O)OCC[N+](C)(C)C in this assay:
inactive

Outcome logged for Cn1cnc2c(NCc3ccccc3)nc(NCCO)nc21 in this assay:
inactive

====

Tested on: WaGa
Test Details: qHTS assay to identify novel small-molecules to repurpose for Merkel cell carcinoma treatment (AID 1296009); further: nearly all actives have a fitted effect of over 60% in size
Protocol Conditions: MCC and control cell lines, CellTiter-Glo viability, 72 h; series mostly up to 46 µM
Results filed as inconclusive are left out. Active and inactive are the calls of the source. Calls follow the shape of the dose curve; as a rule, active = well fitted inhibition curve with a large enough effect; inconclusive = small, poorly fitted or top-dose-only effect; inactive = flat fitted curve, though single readings scatter.
Answer with one of the outcomes true (active), false (inactive)

Sample answers from the record:
>>> label_class("NCC(=O)O")
"false"
>>> label_class("CCCC(CCC)(C(=O)OCC)C(=O)OCC")
"false"
>>> label_class("NC(=O)NC1N=C([O][Al])NC1=O (stereo not drawn)")
"false"

Outcome logged for CCOC(=O)C(O)c1ccccc1 (stereo not drawn) in this assay:
false

Outcome logged for COc1cc(C(=O)NC2CCCNC2)cc(OC)c1OC (stereo not drawn) in this assay:
false

Outcome logged for COc1cc(/C=C/C(N)=O)cc(OC)c1OC in this assay:
false

Outcome logged for CC(C)(C)C(O)/C=C/c1ccc2c(c1)OCO2 (stereo not drawn) in this assay:
false

Outcome logged for CCN1C(=O)c2ccccc2C1Nc1ccc(OCCN2CCCCC2)cc1 (stereo not drawn) in this assay:
false

Outcome logged for Oc1ccccc1-c1nnco1 in this assay:
false

Outcome logged for COC(=O)c1cc(Cl)ccc1NS(=O)(=O)C(F)(F)F in this assay:
false

Outcome logged for CC(=O)c1ccc(O)c(C(N)=O)c1 in this assay:
false

Outcome logged for NS(=O)(=O)c1ccc(N2CCCCS2(=O)=O)cc1 in this assay:
false

Outcome logged for CN1CCC(=C2c3ccccc3CCc3cccnc32)CC1 in this assay:
false

Outcome logged for CNC[C@H](O)[C@@H](O)[C@H](O)[C@H](O)CO in this assay:
false

Outcome logged for CCCCC(CC)COC(=O)c1ccccc1C(=O)O (stereo not drawn) in this assay:
false

Outcome logged for O=C(O)c1ccccc1Nc1cc(Cl)ccc1C(=O)O in this assay:
false

Outcome logged for NC(=O)COCCN1CCN(C(c2ccccc2)c2ccc(Cl)cc2)CC1 (stereo not drawn) in this assay:
false

Outcome logged for CN(C)CCN(Cc1ccsc1)c1ccccn1 in this assay:
false

Outcome logged for CC(CCc1ccc2c(c1)OCO2)NN (stereo not drawn) in this assay:
false

Outcome logged for Cc1ccc(-c2ccccc2C#N)cc1 in this assay:
false

Outcome logged for CN1C(CSCC(F)(F)F)Nc2cc(Cl)c(S(N)(=O)=O)cc2S1(=O)=O (stereo not drawn) in this assay:
false

Outcome logged for CCN(CC)CCN in this assay:
false
